Assay: clinical
Details: both, human, in vivo, po, 50 mg, t1/2
endpoint: half-life (h)
# unit: h | format: bare number

Query block: Recorded half-life for "COc1cc2c(cc1OC)[C@H]1C[C@@H](OC(=O)[C@@H](N)C(C)(C)O)[C@H](CC(C)C)CN1CC2" , please?
Result block: 57

Query block: Recorded half-life for "COc1cc2c(cc1OC)[C@H]1C[C@@H](OC(=O)[C@@H](N)C(C)C)[C@H](CC(C)C)CN1CC2" , please?
Result block: 28

====

Test: clinical
Conditions: both, human, in vivo, po, 50 mg, AUC0-24
endpoint: AUC(0-t) (ng·h/mL)
# unit: ng·h/mL | format: bare number

Query block: Recorded AUC(0-t) for "COc1cc2c(cc1OC)[C@H]1C[C@@H](OC(=O)[C@@H](N)C(C)(C)O)[C@H](CC(C)C)CN1CC2" , please?
Result block: 363

====

Assay: clinical
Conditions: both, human, in vivo, median tmax
endpoint: Tmax

Query block: Recorded Tmax for COc1cc2c(cc1OC)[C@H]1C[C@@H](OC(=O)[C@@H](N)C(C)(C)O)[C@H](CC(C)C)CN1CC2 [NBI-136110] , please?
Result block: 2.5 to 4 h
